tgt: human FVIIa (Homo sapiens (Human), UniProt P08709)
Sequence (P08709 61-212): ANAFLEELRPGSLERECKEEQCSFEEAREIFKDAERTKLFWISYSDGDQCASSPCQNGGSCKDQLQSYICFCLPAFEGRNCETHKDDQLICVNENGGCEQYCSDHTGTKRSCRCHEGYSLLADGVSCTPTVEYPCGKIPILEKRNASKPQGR
Sequence (P08709 213-466): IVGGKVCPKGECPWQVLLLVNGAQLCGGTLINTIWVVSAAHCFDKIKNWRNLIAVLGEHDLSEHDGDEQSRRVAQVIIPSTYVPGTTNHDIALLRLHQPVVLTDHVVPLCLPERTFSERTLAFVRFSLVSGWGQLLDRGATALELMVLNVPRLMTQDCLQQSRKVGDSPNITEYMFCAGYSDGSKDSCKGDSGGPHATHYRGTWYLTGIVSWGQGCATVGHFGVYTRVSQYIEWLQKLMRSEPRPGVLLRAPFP
Sequence (P13726 33-295 partner): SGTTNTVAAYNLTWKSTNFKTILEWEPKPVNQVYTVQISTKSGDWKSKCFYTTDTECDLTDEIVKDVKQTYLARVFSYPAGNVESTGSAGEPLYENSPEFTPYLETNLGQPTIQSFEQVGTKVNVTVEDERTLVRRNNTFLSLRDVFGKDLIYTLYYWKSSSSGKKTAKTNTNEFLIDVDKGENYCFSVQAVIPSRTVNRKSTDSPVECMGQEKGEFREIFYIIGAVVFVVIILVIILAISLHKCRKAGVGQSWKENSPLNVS
protocol notes: FVIIa Ki (37° C.), FVIIa-Xase assay
Assay type: biochemical
assay context: selectivity ratio, tissue kallikrein (HK1) vs FVIIa
// boundary case: Ki(HK1)/Ki(FVIIa) equal to 600 maps to N; strictly smaller maps to Y

Cc1cc2ccc1[C@@H](C)COC(=O)Nc1cc(F)c(S(=O)(=O)C3CC3)c(c1)CN(C)C(=O)[C@@H]2Nc1cc(F)c2c(N)nccc2c1.O=C(O)C(F)(F)F [Example 11] ... Y
Cc1cc2ccc1[C@@H](C)COC(=O)Nc1cc(F)c(OC[C@H](C)O)c(c1)CN(C)C(=O)[C@@H]2Nc1ccc2c(N)nccc2c1.O=C(O)C(F)(F)F [Example 17] ... N
Cc1cc2ccc1[C@@H](C)COC(=O)Nc1ccc(C(=O)N3CCC3)c(c1)CN(C)C(=O)[C@@H]2Nc1ccc2c(N)nccc2c1.O=C(O)C(F)(F)F [Example 7] ... Y
Cc1cc2ccc1[C@@H](C)COC(=O)Nc1cc(F)c(OC[C@H](O)C3CC3)c(c1)CN(C)C(=O)[C@@H]2Nc1ccc2c(N)nccc2c1.O=C(O)C(F)(F)F (stereo in doubt) [Example 21] ... N

In the following, a different compound is considered.
Ask: Lab log: compare recorded Ki(HK1)/Ki(FVIIa) with 600; is it strictly lower for CC[C@@H](C(=O)O)c1ccc2cc1CN(C)C(=O)[C@H](Nc1ccc3c(N)ncc(F)c3c1)c1ccc(c(C)c1)[C@@H](C)COC(=O)N2.O=C(O)C(F)(F)F [Example 13] ?
Reply: N
